Test: HepG2 cell growth inhibition
Type: cell-based
Conditions: human, HepG2 cells
Value kind: CC50 (µg/mL)
Answer with a number only, understood to be in µg/mL.

## Input Dear colleague, please send me the reported CC50 for CC(C)=CCC/C(C)=C/CNCCNC1C2CC3CC(C2)CC1C3 (stereo not shown) when you can.
## Output 1.2

---

Experiment: HEK293T cell growth inhibition
Assay type: cell-based
Conditions: human, HEK293T cells
Value kind: CC50 (µg/mL)
Provide the reading as a plain figure in µg/mL.

## Input State its CC50 for this molecule: CC(C)=CCC/C(C)=C/CNCCNC1C2CC3CC(C2)CC1C3 (stereo not shown)
## Output 1.9
